Value source: ChEMBL document CHEMBL1268887

pIC50: −log10 of the molar value.
Form: system (3-oxoacyl-acyl-carrier protein reductase (Plasmodium falciparum, UniProt Q965D6)), quantity (pIC50), values below.
QUANTITY_MEASURED: pIC50

INSERT INTO assay_data (molecule, meas_value) VALUES
  ('CCCCCCCCCCCCCCCC(=O)O [PALMITIC ACID]', '< 3.41'),
  ('CCCCCCCCCC#CCCCCC(=O)O', '< 3.40'),
  ('CCCCCCC#CCCCCCCCC(=O)O', '< 3.40'),
  ('CCCCCCCCCCC#CCCCC(=O)O', '< 3.40');

---

# System: L6
# ASSAY_NAME: Cytotoxicity against rat L6 cells after 72 hrs by microplate fluorometric analysis
# Format: cell-based
# PROTOCOL_CONDITIONS: L6, 72 h
Readings of IC50 for the listed compounds
QUANTITY_MEASURED: IC50 (µg/mL)

INSERT INTO assay_data (smiles_str, unit_label, relation, meas_value) VALUES
  ('CCCCCCCCCCCCCCCC(=O)O', 'µg/mL', '=', 52.7),
  ('CCCCCCC#CCCCCCCCC(=O)O', 'µg/mL', '=', 80.8),
  ('CCCCCCCCCC#CCCCCC(=O)O', 'µg/mL', '=', 30.3),
  ('COc1cc([C@@H]2c3cc4c(cc3[C@H](O)[C@H]3COC(=O)[C@H]23)OCO4)cc(OC)c1OC', 'µg/mL', '=', 0.004),
  ('CCCCCCCCCCC#CCCCC(=O)O', 'µg/mL', '>', 90);
